Test system: Escherichia coli TOP10;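 further: peptides expressed intracellularly from a pBAD plasmid library in pooled LB shake-flask culture, induced with 0.3% L-arabinose, DNA abundance read by NGS, three biological replicates, DESeq2 with apeglm shrinkage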
ASSAY_DETAILS: shrunken log2 fold change of peptide-encoding DNA abundance (4.5 h post-induction vs induction); higher = less antimicrobial activity (less host growth inhibition)
SETUP_CONDITIONS: time post-induction: 4.5 h; library: site-saturation at positions 5, 18, 19, 20
ATTRIBUTE_MEASURED: shrunken log2 fold change
Answer with a number only.

Sample records with shrunken log2 fold change:
> print(dat)
            sequence.entry         attribute.measured  value.measured
1  RRIRYRPPRLPRPRPRPKWGPRP  shrunken log2 fold change          -0.297
2  RRIRCRPPRLPRPRPRPPYTPRP  shrunken log2 fold change          -0.343
3  RRIRVRPPRLPRPRPRPQDWPRP  shrunken log2 fold change          -0.132
4  RRIRPRPPRLPRPRPRPSTHPRP  shrunken log2 fold change          -0.203
5  RRIRLRPPRLPRPRPRPNDWPRP  shrunken log2 fold change          -0.261
6  RRIRPRPPRLPRPRPRPPTRPRP  shrunken log2 fold change           0.683
7  RRIRLRPPRLPRPRPRPLESPRP  shrunken log2 fold change          -0.212
8  RRIRERPPRLPRPRPRPERAPRP  shrunken log2 fold change          -0.024

Okay, next one:
Prompt: What shrunken log2 fold change value was documented for this sequence, RRIRERPPRLPRPRPRPVCRPRP ?
Response: -0.0104
